The measured values listed here are drawn from ChEMBL document CHEMBL1137529.

- TEST: Solubility in water
- Format: physicochemical
What solubility was measured for each of the following?

Q: Which value of solubility has been reported for Cc1ncc(-c2ccc(C(F)(F)F)cc2)c(NC23CC4CC(CC(C4)C2)C3)n1 in the records?
A: < 10 µg/mL

Q: Which value of solubility has been reported for Cc1ncc(-c2ccc(C(F)(F)F)cc2)c(NC2C3CC4CC(C3)CC2C4)n1 (configuration not stated) in the records?
A: < 10 µg/mL
